target: DNA polymerase iota (Homo sapiens) (UniProt Q9UNA4); assay: qHTS for Inhibitors of Polymerase Iota; conditions: Pol iota fluorescent replication assay, 10 min; series mostly up to 115 µM
Sequence (Q9UNA4 whole entry, looked up): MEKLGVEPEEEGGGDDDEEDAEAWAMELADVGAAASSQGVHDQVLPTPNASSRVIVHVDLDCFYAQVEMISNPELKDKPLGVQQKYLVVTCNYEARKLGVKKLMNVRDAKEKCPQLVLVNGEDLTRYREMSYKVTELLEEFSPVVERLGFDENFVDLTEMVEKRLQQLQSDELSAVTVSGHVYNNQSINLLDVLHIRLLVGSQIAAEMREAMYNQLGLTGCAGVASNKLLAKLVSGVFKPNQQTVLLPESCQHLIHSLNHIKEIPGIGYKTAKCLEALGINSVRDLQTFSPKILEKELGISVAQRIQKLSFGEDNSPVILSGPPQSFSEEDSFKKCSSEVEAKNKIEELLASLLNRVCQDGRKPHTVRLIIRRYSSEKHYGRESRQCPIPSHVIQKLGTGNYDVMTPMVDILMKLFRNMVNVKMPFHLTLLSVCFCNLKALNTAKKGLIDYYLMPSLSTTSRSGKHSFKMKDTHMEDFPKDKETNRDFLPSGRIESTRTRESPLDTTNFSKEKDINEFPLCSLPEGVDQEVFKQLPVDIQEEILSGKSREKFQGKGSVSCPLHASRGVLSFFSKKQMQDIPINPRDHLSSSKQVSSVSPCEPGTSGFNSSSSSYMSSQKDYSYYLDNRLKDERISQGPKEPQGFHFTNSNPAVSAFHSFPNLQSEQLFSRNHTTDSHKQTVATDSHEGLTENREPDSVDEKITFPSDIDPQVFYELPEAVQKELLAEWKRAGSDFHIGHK
The whole screen tested about 390,000 compounds, of which about 4,000 (1%) were called active. Inconclusive results (about 7%) are left out. Calls follow the shape of the dose curve; as a rule, active = well fitted inhibition curve with a large enough effect; inconclusive = small, poorly fitted or top-dose-only effect, or another doubt; inactive = no such curve, though single readings can be large or run the other way. The list comes from a sample in which actives are over-represented; it also holds close analogues and randomly drawn compounds.
Outcome codes: true = active, false = inactive

- molecule: "CCN(CC)S(=O)(=O)c1cccc(-c2n[nH]c(=S)n2/N=C/c2ccc(C(=O)OC)cc2)c1"
  classification: "false"
- molecule: "CCCNC(=O)C(CC)n1nc(CC)n2c(cc3oc(C)cc32)c1=O (stereo unspecified)"
  classification: "false"
- molecule: "CCN(CC)c1nc(C#N)nc(OC)n1"
  classification: "false"
- molecule: "CN(C)c1ccc(/C=C/c2c3ccccc3nc3ccccc23)cc1"
  classification: "false"
- molecule: "Cc1c(N=Nc2ccc(N(C)C)cc2)c(=O)n(-c2ccccc2)n1C"
  classification: "false"
- molecule: "COC(=O)C1=C(c2ccccc2)c2ccccc2S(=O)(=O)N1CC(=O)Nc1ccccc1C(F)(F)F"
  classification: "false"
- molecule: "CN(C)c1ccc(/C=C/c2sc3ccccc3[n+]2CCCCBr)cc1"
  classification: "false"
- molecule: "O=c1[nH]n2c(=O)c3c([nH]c2c1N=Nc1ccccc1)CCC3"
  classification: "true"
- molecule: "CN(C)c1ccc(/C=C/c2sc3ccccc3[n+]2C)cc1"
  classification: "true"
- molecule: "S=c1[nH]nc(-c2cc(-c3ccccc3)n[nH]2)n1/N=C/c1c2ccccc2cc2ccccc12"
  classification: "true"
- molecule: "COc1ccc(NC(=O)C2CCCN(S(=O)(=O)c3cccc4nonc34)C2)cc1Cl (stereo unspecified)"
  classification: "false"

###

biological target: DNA polymerase iota (Homo sapiens); assay: qHTS for Inhibitors of Polymerase Iota; conditions: Pol iota fluorescent replication assay, 10 min; series mostly up to 115 µM
The whole screen tested about 390,000 compounds, of which about 4,000 (1%) were called active. Another 7% or so got no clear call; they are omitted. The call rests on the fitted dose curve; in most records, active means well fitted inhibition curve with a large enough effect; inconclusive means small, poorly fitted or top-dose-only effect, or another doubt; inactive means no such curve, though single readings can be large or run the other way. Many of the other results were omitted from the sample, so actives are more common in it than they were.
Labels: active, inactive

- compound: "O=C(NCCc1ccccn1)c1ccc(COc2ccccc2)o1"
  targetDesc: "DNA polymerase iota (Homo sapiens)"
  classification: "inactive"
- compound: "Cc1cc(/C=C2\\SC(=O)N(C)C2=O)c(C)n1-c1cccc(C(=O)O)c1"
  targetDesc: "DNA polymerase iota (Homo sapiens)"
  classification: "active"
- compound: "CN(C)C(CNC(=O)c1ccc(OCc2cn3ccccc3n2)cc1)c1ccco1 (configuration not stated)"
  targetDesc: "DNA polymerase iota (Homo sapiens)"
  classification: "active"
- compound: "CN(C)C(CNC(=O)c1cccc(C#N)c1)c1ccco1 (configuration not stated)"
  targetDesc: "DNA polymerase iota (Homo sapiens)"
  classification: "inactive"
- compound: "Oc1ccccc1-c1nc2ccc(Cl)cn2c1Nc1ccc2c(c1)OCCO2"
  targetDesc: "DNA polymerase iota (Homo sapiens)"
  classification: "inactive"
- compound: "COc1cc2nc(N3CCCN(C)CC3)nc(NC(C)C)c2cc1OC"
  targetDesc: "DNA polymerase iota (Homo sapiens)"
  classification: "inactive"
- compound: "O=C(NCCc1ccco1)c1ccc(OCc2cn3ccccc3n2)cc1"
  targetDesc: "DNA polymerase iota (Homo sapiens)"
  classification: "active"
- compound: "COC(=O)CN1C(=O)N/C(=C/c2ccc(OC)c(C)c2OC)C1=O"
  targetDesc: "DNA polymerase iota (Homo sapiens)"
  classification: "inactive"
- compound: "CCCCN(C)c1nnc(NC(=O)Nc2ccc(Br)c(C)c2)s1"
  targetDesc: "DNA polymerase iota (Homo sapiens)"
  classification: "inactive"
- compound: "COc1ccccc1OCC(=O)OCc1cc(-c2ccco2)on1"
  targetDesc: "DNA polymerase iota (Homo sapiens)"
  classification: "inactive"
- compound: "CN(C)C(CNC(=O)CCCOc1ccccc1)c1ccco1 (configuration not stated)"
  targetDesc: "DNA polymerase iota (Homo sapiens)"
  classification: "inactive"
- compound: "O=C(NCc1ccco1)c1nc2ncccn2n1"
  targetDesc: "DNA polymerase iota (Homo sapiens)"
  classification: "inactive"

###

biological target: DNA polymerase iota (Homo sapiens) (UniProt Q9UNA4); assay: qHTS for Inhibitors of Polymerase Iota; details: Pol iota fluorescent replication assay, 10 min; series mostly up to 115 µM
The campaign covered roughly 390,000 compounds. About 4,000 (1%) were called active. About 7% were inconclusive and are not listed. The call rests on the fitted dose curve; in most records, active means well fitted inhibition curve with a large enough effect; inconclusive means small, poorly fitted or top-dose-only effect, or another doubt; inactive means no such curve, though single readings can be large or run the other way. The list comes from a sample in which actives are over-represented; it also holds close analogues and randomly drawn compounds.
Outcome codes: active, inactive

- compound: "CCCCNC(=O)c1c[nH]c2ccc(S(=O)(=O)Nc3ccc(OCC)cc3)cc2c1=O"
  classification: "inactive"
- compound: "COc1ccccc1Nc1cc(C(=O)NCCCN(C)C2CCCCC2)c2ccccc2n1"
  classification: "inactive"
- compound: "O=C(Nc1c(-c2ccc(F)cc2)nc2ccccn12)c1cccc(F)c1"
  classification: "inactive"
- compound: "CC(NC(=O)CCc1cn(Cc2ccccc2Cl)c2ccccc12)c1ccccc1 (stereo not given)"
  classification: "inactive"
- compound: "COc1cc(Nc2nc(-c3ccc(OC)c(OC)c3)nc3ccccc23)cc(OC)c1"
  classification: "inactive"
- compound: "CCCOC(=O)c1c(NC(=O)c2cc3nc(-c4ccc(OC)cc4)cc(C(F)(F)F)n3n2)sc2c1CCCC2"
  classification: "inactive"
- compound: "OC[C@@H]1O[C@H](n2cnc3c(SCc4ccccc4)ncnc32)[C@H](O)[C@H]1O"
  classification: "inactive"
- compound: "CC(C)c1ccc(NS(=O)(=O)c2ccc3[nH]cc(C(=O)NC4CCCC4)c(=O)c3c2)cc1"
  classification: "active"
- compound: "CN(C)CCNC(=O)c1ccc(Cl)c2cc3ccccc3nc12"
  classification: "active"
- compound: "CN(N=O)c1ccc(C=C2c3ccccc3-c3ccccc32)cc1"
  classification: "inactive"

###

target: DNA polymerase iota (Homo sapiens); assay: qHTS for Inhibitors of Polymerase Iota; details: Pol iota fluorescent replication assay, 10 min; series mostly up to 115 µM
The whole screen tested about 390,000 compounds, of which about 4,000 (1%) were called active. Not shown: some 7% with an inconclusive outcome. Calls follow the shape of the dose curve; as a rule, active = well fitted inhibition curve with a large enough effect; inconclusive = small, poorly fitted or top-dose-only effect, or another doubt; inactive = no such curve, though single readings can be large or run the other way. Many of the other results were omitted from the sample, so actives are more common in it than they were.
Labels: active, inactive

- smilesCode: "Cc1ccccc1NC(=O)Cn1c(=O)n(CCc2ccccc2)c(=O)c2ccccc21"
  targetDesc: "DNA polymerase iota (Homo sapiens)"
  classification: "inactive"
- smilesCode: "O=C(NC(=S)Nc1ccc(Cl)c(C(=O)O)c1)c1cncc(Br)c1"
  targetDesc: "DNA polymerase iota (Homo sapiens)"
  classification: "inactive"
- smilesCode: "Cc1ccccc1NC(=O)CN1C(=O)C(C)(C)c2ccccc21"
  targetDesc: "DNA polymerase iota (Homo sapiens)"
  classification: "inactive"
- smilesCode: "CCOc1ccc(-n2nc3ccc(NC(=O)c4ccc(OC)c(Cl)c4)cc3n2)cc1"
  targetDesc: "DNA polymerase iota (Homo sapiens)"
  classification: "inactive"
- smilesCode: "Cc1ccccc1NC(=O)CN1C(=O)N/C(=C\\c2cccn2-c2cccc(C(=O)O)c2)C1=O"
  targetDesc: "DNA polymerase iota (Homo sapiens)"
  classification: "active"

###

target: DNA polymerase iota (Homo sapiens); test: qHTS for Inhibitors of Polymerase Iota; details: Pol iota fluorescent replication assay, 10 min; series mostly up to 115 µM
Among all 390,000 compounds or so, about 4,000 (1%) were called active. Another 7% or so got no clear call; they are omitted. The call rests on the fitted dose curve; in most records, active means well fitted inhibition curve with a large enough effect; inconclusive means small, poorly fitted or top-dose-only effect, or another doubt; inactive means no such curve, though single readings can be large or run the other way. Many of the other results were omitted from the sample, so actives are more common in it than they were.
Outcomes: y = active, n = inactive

- compound: "C/C(CC(=O)N1CCN(C=O)CC1)=N\\NC(=O)c1ccc(Br)cc1"
  classification: "n"
- compound: "O=C(Nc1ccccc1C(F)(F)F)c1nc(S(=O)(=O)Cc2ccccc2F)ncc1Cl"
  classification: "n"
- compound: "O=C(CSc1ccccc1)Nc1cccc(S(=O)(=O)N2CCOCC2)c1"
  classification: "n"
- compound: "CCc1c(C)sc(NC(=O)C2c3ccccc3Oc3ccccc32)c1C(=O)OC(C)C"
  classification: "n"
- compound: "O=C(COc1ccc(Cl)cc1)N1CCN(S(=O)(=O)c2ccc(Cl)cc2)CC1"
  classification: "n"
- compound: "COc1cc(/C=C/C(=O)OCC(=O)NC2CC2)cc(OC)c1OC"
  classification: "n"
- compound: "O=C(O)c1ccc(/C=C2\\SC(=S)N(NC(=O)c3ccc(Br)cc3)C2=O)cc1"
  classification: "y"
- compound: "CCOc1ccc(Nc2c(S(=O)(=O)c3ccccc3)cnc3ccccc23)cc1"
  classification: "n"
- compound: "O=C(O)c1ccc(N/N=C/c2ccc3ncccc3c2)cc1"
  classification: "n"
- compound: "O=C(CSc1nc(=O)n2ccccc2n1)Nc1ccc2c(c1)OCCO2"
  classification: "n"
- compound: "COc1cccc2c1cc1c(=O)n(CC(=O)N3CCN(c4ccccc4)CC3)nc(C)n12"
  classification: "n"
- compound: "CCOc1ccccc1NC(=O)CN1CCN(S(=O)(=O)c2ccc(Br)cc2)CC1"
  classification: "n"
- compound: "CCc1nn(CC(=O)N2CCN(CC)CC2)c(=O)c2cccn12"
  classification: "n"
- compound: "COc1ccc2c(c1)c(=O)c(S(=O)(=O)c1ccc(F)cc1)cn2CC(=O)Nc1ccc(C)cc1C"
  classification: "n"
- compound: "O=C(COC(=O)/C=C/c1ccc(Br)o1)Nc1cccc(S(=O)(=O)N2CCOCC2)c1"
  classification: "y"
- compound: "O=C(O)c1ccc(NN=CC2=C(N3CCOCC3)/C(=C/c3ccccc3)CC2)cc1"
  classification: "y"
- compound: "COc1ccccc1/C=C/C(=O)OCC(=O)NC1CCCCCC1"
  classification: "n"
- compound: "Cc1ccccc1-c1nnc(SCC(=O)NCc2ccc3c(c2)OCO3)n1C"
  classification: "n"
- compound: "Cc1ccn2c(=O)nc(SCC(=O)NCc3ccc4c(c3)OCO4)nc2c1"
  classification: "y"
- compound: "CCOc1ccccc1CNC(=O)c1ccc(-n2c(C)cc3c2CCC(C)C3)cc1 (stereo unspecified)"
  classification: "n"
- compound: "CS(=O)(=O)c1ccc(Cl)c(NC(=O)COC(=O)c2ncc(Cl)c(Cl)c2Cl)c1"
  classification: "n"
